Origin of values: patent US9850283B2

# Target Or System: LK35.2-hPD-L1 cells / PE-labeled PD-1-Ig (Homo sapiens)
# Construct: expressed in transfected cells; host or cells: LK35.2 mouse B cell line
# Assay Info: LK35.2-hPD-L1 cell binding high-content screening assay
# Type: cell-based
# Experimental Conditions: cell binding assay, cell line not given; value given instead of cluster; read-out: CBA IC50 value
# Description: LK35.2-hPD-L1 Cell Binding High-Content Screening Assay. Phycoerythrin (PE) was covalently linked to the Ig epitope tag of human PD-1-Ig and fluorescently-labeled PD-1-Ig was used for binding studies with a mouse B cell line (LK35.2) stably over-expressing human PD-L1 (LK35.2-hPD-L1). Briefly, 3×10^3 LK35.2-hPD-L1 cells were seeded into 384 well plates in 20 ul of RPMI supplemented with 10% fetal calf serum and cultured overnight. […]
Positions of bridges follow the written chain, without caps; N, C: chain ends. Non-standard residues stand in square brackets, D forms with d. Residues, ends and D or L forms follow the SMILES beside them. hhPhe = N[C@@H](CCCc1ccccc1)C(=O)O; Hyp = O=C(O)[C@@H]1C[C@@H](O)CN1; NMeF = CN[C@@H](Cc1ccccc1)C(=O)O; NMeNle = CCCC[C@H](NC)C(=O)O; NMeA = CN[C@@H](C)C(=O)O; dThz = O=C(O)[C@H]1CSCN1; Sar = CNCC(=O)O
Measurement Type: IC50 (nM)
Reply with just the number (in nM).

// worked examples, IC50 included
Molecule: CCCC[C@H]1C(=O)N(C)[C@@H](CCCC)C(=O)N[C@@H](CC(C)C)C(=O)N[C@H](C(=O)NCC(N)=O)CSCC(=O)N[C@@H](Cc2ccc(O)cc2)C(=O)N(C)[C@@H](C)C(=O)N[C@@H](CC(N)=O)C(=O)N2CCC[C@H]2C(=O)N[C@@H](Cc2c[nH]cn2)C(=O)NCC(=O)N2C[C@H](O)C[C@H]2C(=O)N[C@@H](Cc2c[nH]c3ccccc23)C(=O)N[C@@H](CO)C(=O)N[C@@H](Cc2c[nH]c3ccccc23)C(=O)N1C [Example 5122] ({CH2CO}-Y[NMeA]NPHG[Hyp]WSW[NMeNle][NMeNle]LCG-NH2; thioether N-14)
Target Or System: LK35.2-hPD-L1 cells / PE-labeled PD-1-Ig (Homo sapiens)
Unit: nM
IC50: 134

Molecule: CCCC[C@H]1C(=O)N(C)CC(=O)N[C@@H](CC(=O)O)C(=O)N[C@@H](C(C)C)C(=O)N(C)[C@@H](Cc2ccccc2)C(=O)N[C@@H](Cc2ccc(O)cc2)C(=O)N2CSC[C@@H]2C(=O)N[C@@H](Cc2c[nH]c3ccccc23)C(=O)N[C@@H](Cc2ccc(O)cc2)C(=O)N[C@@H](CC(C)C)C(=O)N[C@H](C(=O)NCC(N)=O)CSCC(=O)N[C@@H](Cc2ccccc2)C(=O)N(C)[C@@H](Cc2ccccc2)C(=O)N1C [Example 3601] ({CH2CO}-F[NMeF][NMeNle][Sar]DV[NMeF]Y[dThz]WYLCG-NH2; thioether N-13)
Target Or System: LK35.2-hPD-L1 cells / PE-labeled PD-1-Ig (Homo sapiens)
Unit: nM
IC50: 1.79

Please list IC50 recorded for the molecule CCCC[C@H]1C(=O)N(C)[C@@H](CCCC)C(=O)N[C@@H](CCCNC(=N)N)C(=O)N[C@H](C(=O)NCC(N)=O)CSCC(=O)N[C@@H](Cc2ccccc2)C(=O)N(C)[C@@H](C)C(=O)N[C@@H](CC(N)=O)C(=O)N2CCC[C@H]2C(=O)N[C@@H](Cc2cnc[nH]2)C(=O)N[C@@H](CCCNC(=N)N)C(=O)N(C)CC(=O)N[C@@H](Cc2c[nH]c3ccccc23)C(=O)N[C@@H](CO)C(=O)N[C@@H](Cc2c[nH]c3ccccc23)C(=O)N1C [Example 6003] ({CH2CO}-F[NMeA]NPHR[Sar]WSW[NMeNle][NMeNle]RCG-NH2; thioether N-14)
72.9

Give recorded IC50. CCCC[C@H]1C(=O)N(C)[C@@H](CCCC)C(=O)N[C@@H](CO)C(=O)N[C@H](C(=O)NCC(N)=O)CSCC(=O)N[C@@H](Cc2ccc(O)cc2)C(=O)N(C)[C@@H](C)C(=O)N[C@@H](CC(=O)O)C(=O)N2CCC[C@H]2C(=O)N[C@@H](CO)C(=O)N[C@@H](CO)C(=O)N2C[C@H](O)C[C@H]2C(=O)N[C@@H](Cc2c[nH]c3ccccc23)C(=O)N[C@@H](CO)C(=O)N[C@@H](Cc2c[nH]c3ccccc23)C(=O)N1C [Example 5117] ({CH2CO}-Y[NMeA]DPSS[Hyp]WSW[NMeNle][NMeNle]SCG-NH2; thioether N-14)
6.75

State, in one line, measured IC50 of CCCC[C@H]1C(=O)N(C)[C@@H](CCCC)C(=O)N[C@@H](CCCNC(=N)N)C(=O)N[C@H](C(=O)NCC(N)=O)CSCC(=O)N[C@@H](Cc2ccccc2)C(=O)N(C)[C@@H](C)C(=O)N[C@@H](CC(N)=O)C(=O)N2CCC[C@H]2C(=O)N[C@@H](Cc2cnc[nH]2)C(=O)N[C@@H](Cc2c[nH]c3ccccc23)C(=O)N(C)CC(=O)N[C@@H](Cc2c[nH]c3ccccc23)C(=O)N[C@@H](CO)C(=O)N[C@@H](Cc2c[nH]c3ccccc23)C(=O)N1C [Example 6009] ({CH2CO}-F[NMeA]NPHW[Sar]WSW[NMeNle][NMeNle]RCG-NH2; thioether N-14)
158

Return reported IC50. Input molecule: CCCC[C@H]1C(=O)N(C)[C@@H](CCCC)C(=O)N[C@@H](CCCNC(=N)N)C(=O)N[C@H](C(=O)NCC(N)=O)CSCC(=O)N[C@@H](CCCc2ccccc2)C(=O)N(C)[C@@H](C)C(=O)N[C@@H](CC(N)=O)C(=O)N2CCC[C@H]2C(=O)N[C@@H](Cc2cnc[nH]2)C(=O)N[C@@H](CC(C)C)C(=O)N2CCC[C@H]2C(=O)N[C@@H](Cc2c[nH]c3ccccc23)C(=O)N[C@@H](CO)C(=O)N[C@@H](Cc2c[nH]c3ccccc23)C(=O)N1C [Example 7018] ({CH2CO}-[hhPhe][NMeA]NPHLPWSW[NMeNle][NMeNle]RCG-NH2; thioether N-14)
228

Look up and report measured IC50 for this entry: CCCC[C@H]1C(=O)N(C)[C@@H](CCCC)C(=O)N[C@@H](CCCNC(=N)N)C(=O)N[C@H](C(=O)NCC(N)=O)CSCC(=O)N[C@@H](Cc2ccccc2)C(=O)N(C)[C@@H](C)C(=O)N[C@@H](CC(N)=O)C(=O)N2CCC[C@H]2C(=O)N[C@@H](Cc2c[nH]cn2)C(=O)N[C@@H](CC(C)C)C(=O)N(C)CC(=O)N[C@@H](Cc2c[nH]c3ccccc23)C(=O)N[C@@H]([C@@H](C)O)C(=O)N[C@@H](Cc2c[nH]c3ccccc23)C(=O)N1C [Example 5008] ({CH2CO}-F[NMeA]NPHL[Sar]WTW[NMeNle][NMeNle]RCG-NH2; thioether N-14)
22.7

Read the entry CCCC[C@H]1C(=O)N([13CH3])[C@@H](CCCC)C(=O)N[C@@H](CCCNC(=N)N)C(=O)N[C@H](C(=O)NCC(N)=O)CSCC(=O)N[C@@H](Cc2ccc(O)cc2)C(=O)N([13CH3])[C@@H](C)C(=O)N[C@@H](CC(N)=O)C(=O)N2CCC[C@H]2C(=O)N[C@@H](Cc2cnc[nH]2)C(=O)N[C@@H](CC(C)C)C(=O)N2CCC[C@H]2C(=O)N[C@@H](Cc2c[nH]c3ccccc23)C(=O)N[C@@H](CO)C(=O)N[C@@H](Cc2csc3ccccc23)C(=O)N1[13CH3] and write its reported IC50.
0.763

====

# Target Or System: LK35.2-hPD-L1 cells / PE-labeled PD-1-Ig (Homo sapiens, UniProt Q9NZQ7)
# Construct: expressed in transfected cells; host or cells: LK35.2 mouse B cell line
# Sequence (Q9NZQ7 19-290): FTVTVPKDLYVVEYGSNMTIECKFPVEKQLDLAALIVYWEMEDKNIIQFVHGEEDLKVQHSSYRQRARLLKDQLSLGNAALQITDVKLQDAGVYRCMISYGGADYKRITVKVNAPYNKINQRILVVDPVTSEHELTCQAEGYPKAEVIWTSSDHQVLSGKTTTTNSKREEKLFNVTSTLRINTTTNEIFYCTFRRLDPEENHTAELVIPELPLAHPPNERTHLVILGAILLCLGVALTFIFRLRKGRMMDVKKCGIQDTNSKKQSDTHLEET
# Assay Info: LK35.2-hPD-L1 cell binding high-content screening assay
# Format: cell-based
# Experimental Conditions: cluster symbol; cell line of CBA not given (LK35.2-hPD-L1 or 293T-hPD-L1); read-out: CBA IC50 cluster
pIC50: −log10 of the molar value. Positions of bridges follow the written chain, without caps; N, C: chain ends. Non-standard residues stand in square brackets, D forms with d. Residues, ends and D or L forms follow the SMILES beside them. NMeNle = CCCC[C@H](NC)C(=O)O; NMeA = CN[C@@H](C)C(=O)O; Nle = CCCC[C@H](N)C(=O)O; Sar = CNCC(=O)O
Measurement Type: pIC50

Supply reported pIC50 belonging to this molecule: CCCC[C@@H]1NC(=O)[C@H](CCCC)N(C)C(=O)[C@H](CCCC)N(C)C(=O)[C@H](Cc2c[nH]c3ccccc23)NC(=O)[C@H](CO)NC(=O)[C@H](Cc2c[nH]c3ccccc23)NC(=O)CN(C)C(=O)[C@H](CC(C)C)NC(=O)[C@H](Cc2cnc[nH]2)NC(=O)[C@@H]2CCCN2C(=O)[C@H](CC(N)=O)NC(=O)[C@H](C)N(C)C(=O)[C@H](Cc2ccccc2)NC(=O)CSC[C@@H](C(=O)NCC(N)=O)NC1=O [Example 1071] ({CH2CO}-F[NMeA]NPHL[Sar]WSW[NMeNle][NMeNle][Nle]CG-NH2; thioether N-14)
< 7.13
